Experiment: Cytotoxicity against african green monkey Vero cells by MTT assay
Type: cell-based
Conditions: chlorocebus sabaeus
property: CC50 (µM)
Answers are plain numbers, in µM.

Which value of CC50 has been reported for CC(=O)OC1CCC(Nc2cc(-n3nc(C)c4c3CC(C)(C)CC4=O)ccc2C(N)=O)CC1 (configuration not stated) in the records?
35.5

====

Assay: Therapeutic index, ratio of CC50 for african green monkey Vero cells to EC50 for HSV1
Type: cell-based
Conditions: read-out: TI
property: selectivity ratio
Answers are plain numbers.

I would be grateful if you could share the reported selectivity ratio for CC(=O)OC1CCC(Nc2cc(-n3nc(C)c4c3CC(C)(C)CC4=O)ccc2C(N)=O)CC1 (configuration not stated) .
84.5
